Please provide measured IC50 for the entries that follow.
# Test system: P. yoelii liver stage in HepG2-A16-CD81EGFP, imaging
# measurement-protocol: exo-erythrocytic parasite development inhibition – imaging, Malaria Box, P. yoelii, HepG2-A16-CD81EGFP, dose response (AID 602156);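 further: infected cells exposed to compound for 48 hours before fixation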
The source made the active and inactive calls. How the calls were made is not given here.

Example results:
[
  {
    "compound": "CCCCN(CCCC)[P+](N(CCCC)CCCC)(N(CCCC)CCCC)N(CCCC)CCCC",
    "assay-readout": "IC50",
    "value-measured": "11.5 nM"
  },
  {
    "compound": "COc1cccc(Nc2nc(NCCO)c3ccccc3n2)c1",
    "assay-readout": "IC50",
    "value-measured": "62.3 nM"
  },
  {
    "compound": "CC(=O)N(C1=C(N2CCOCC2)C(=O)c2ccccc2C1=O)c1ccc(I)cc1",
    "assay-readout": "IC50",
    "value-measured": "602 nM"
  },
  {
    "compound": "COc1ccc2nc(-c3ccccc3)cc(NCCN(C)C)c2c1",
    "assay-readout": "IC50",
    "value-measured": "570 nM"
  },
  {
    "compound": "CC[C@H]1CN2CCc3cc(OC)c(OC)cc3[C@@H]2C[C@@H]1C[C@H]1NCCc2cc(OC)c(OC)cc21",
    "assay-readout": "IC50",
    "value-measured": "7.49 nM"
  }
]

Hi there! I need IC50 for each item below, if you can.
1. COc1cccc(CNC(=O)C2CNCC2c2ccc(C(F)(F)F)cc2)c1 (configuration not stated)
2. O=C(NC1CC1)c1ccc(CSCc2ccccc2Cl)o1
3. O=C(c1cnsn1)N1CCCC(COc2cccc(CN3CCC(Cc4ccccc4)CC3)c2)C1 (configuration not stated)
4. O=C1C2=C(Nc3ccccc3SC2c2ccc(OCc3ccccc3)cc2)c2ccccc21 (configuration not stated)
5. COc1cc(OC)c(NC(=O)C2c3ccccc3C(=O)N(C)C2c2ccc(OC)c(OC)c2)cc1Cl (configuration not stated)
6. CCc1c(C)c(C#N)c2nc3ccccc3n2c1NCc1ccccc1

Output:
1. 857 nM
2. 140 nM
3. 609 nM
4. 58 nM
5. > 9130 nM (inactive)
6. > 9600 nM (inactive)

Hi there! I need IC50 for each item below, if you can.
1. Cn1ncnc2c(=O)n(C)c(=O)nc1-2
2. CC1CC(N(C(=O)c2ccc(Cl)cc2Cl)c2ccccc2)c2ccccc2N1C(=O)c1ccc(Cl)cc1 (configuration not stated)
3. Fc1ccc(-c2c[n+]3c(n2-c2ccccc2)SCC3)cc1
4. CC1(C)N=C(N)N=C(N)N1c1ccc(I)cc1
5. O=C1C2=C(Nc3ccccc3SC2c2ccc(Br)cc2)c2ccccc21 (configuration not stated)
6. CCCCCC[n+]1ccccc1/C=C/c1ccc(N(C)C)cc1
7. CSc1nnc(-c2cccc([N+](=O)[O-])c2)n1Cc1ccccc1
8. CCN(CC)CCCN(Cc1cc2ccc(C)cc2[nH]c1=O)C(=S)Nc1cccc(Cl)c1

Output:
1. 103 nM
2. 3640 nM
3. > 4300 nM (inactive)
4. 10 nM
5. 327 nM
6. 55.9 nM
7. 2510 nM
8. 448 nM

Hi there! I need IC50 for each item below, if you can.
1. CCCC(=O)N1CCN(c2nc(Cc3ccccc3)c3c(c2C#N)CC(C)(C)OC3)CC1
2. Cc1ccc(N2C(N)=NC(N)=NC2(C)C)cc1
3. COc1ccc2c(C)nc(Nc3nc(C)cc(-c4ccccc4)n3)nc2c1

Output:
1. 348 nM
2. 10 nM
3. 6660 nM

---

# Test system: P. yoelii liver stage in HepG2-A16-CD81EGFP, imaging
# measurement-protocol: exo-erythrocytic parasite development inhibition – imaging, Malaria Box, P. yoelii, HepG2-A16-CD81EGFP, dose response (AID 602156);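 further: infected cells exposed to compound for 48 hours before fixation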
Active and inactive are the calls of the source. No rule for the calls is given here.
Your response should consist of one outcome taken from true (1) = active, false (0) = inactive

Please review the following examples before continuing.
[
  {
    "compound": "Cc1ccc(-c2cc(C(=O)OCC(=O)c3cccc([N+](=O)[O-])c3)c3cc(C)ccc3n2)cc1",
    "assayed-target": "P. yoelii liver stage in HepG2-A16-CD81EGFP, imaging",
    "class-assignment": "false (0)"
  },
  {
    "compound": "Cc1ccc(-c2c[n+]3c(n2-c2ccccc2)SCC3)cc1",
    "assayed-target": "P. yoelii liver stage in HepG2-A16-CD81EGFP, imaging",
    "class-assignment": "true (1)"
  },
  {
    "compound": "O=C(Cn1ccc(=NCc2ccccc2)cc1)c1ccc(I)cc1",
    "assayed-target": "P. yoelii liver stage in HepG2-A16-CD81EGFP, imaging",
    "class-assignment": "true (1)"
  },
  {
    "compound": "CCN1CCN(c2c(C(=O)c3ccccc3)cnc3cc(OC)c(OC)cc23)CC1",
    "assayed-target": "P. yoelii liver stage in HepG2-A16-CD81EGFP, imaging",
    "class-assignment": "true (1)"
  },
  {
    "compound": "Brc1ccc(-c2c[n+]3c(n2-c2ccccc2)SCC3)cc1",
    "assayed-target": "P. yoelii liver stage in HepG2-A16-CD81EGFP, imaging",
    "class-assignment": "true (1)"
  }
]

Input: Status in this test for O=c1c2ccccc2[nH]c2ccc(F)cc12 ?
Output: true (1)

Input: Status in this test for COC(=O)C1=CNC=C(C(=O)OC)C1c1cc(OC)c(OC)c(OC)c1 ?
Output: false (0)

---

# Test system: P. yoelii liver stage in HepG2-A16-CD81EGFP, imaging
# measurement-protocol: exo-erythrocytic parasite development inhibition – imaging, Malaria Box, P. yoelii, HepG2-A16-CD81EGFP, dose response (AID 602156);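 further: infected cells exposed to compound for 48 hours before fixation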
Calls of active or inactive are those of the source. The rule behind the calls is not given here.
Your response should consist of one outcome taken from class 1 (active), class 0 (inactive)

Input: Status in this test for CCCCSCC(O)CN1CCCCC1 (configuration not stated) ?
Output: class 0

Input: Status in this test for O=c1c2ccccc2[nH]c2ccc(I)cc12 ?
Output: class 1

Input: Status in this test for CC(=O)Nc1ccc(-c2nc(-c3ccc(Oc4ccc(-c5[nH]c(-c6ccc(NC(C)=O)cc6)nc5-c5ccccc5)cc4)cc3)c(-c3ccccc3)[nH]2)cc1 ?
Output: class 0

Input: Status in this test for CCOC(=O)CN(N=O)C1=C(N2CC2)C(=O)c2ccccc2C1=O ?
Output: class 1

Input: Status in this test for CCC(C)(C)c1ccc(OCCOCC[n+]2ccccc2)c(C(C)(C)CC)c1 ?
Output: class 1

---

# System: P. yoelii liver stage in HepG2-A16-CD81EGFP, imaging
# measurement-protocol: exo-erythrocytic parasite development inhibition – imaging, Malaria Box, P. yoelii, HepG2-A16-CD81EGFP, dose response (AID 602156);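 further: infected cells exposed to compound for 48 hours before fixation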
Active and inactive are the calls of the source. No rule for the calls is given here.
Your response should consist of one outcome taken from 1.0 (active), 0.0 (inactive)

Please review the following examples before continuing.
[
  {
    "molecule": "COc1cncc(-c2cncc(-c3ccc(C)cc3)n2)c1",
    "class-assignment": 0.0
  },
  {
    "molecule": "O=C(NC(=C(Cl)Cl)[P+](c1ccccc1)(c1ccccc1)c1ccccc1)c1ccc(F)cc1",
    "class-assignment": 1.0
  },
  {
    "molecule": "COc1ccc(C(c2ccc(N(C)C)cc2)c2ccc(N(C)C)cc2)cc1",
    "class-assignment": 0.0
  },
  {
    "molecule": "O=C1N(Cc2cc3ccccc3s2)CC2CN(Cc3ccsc3)CCN12 (stereo unspecified)",
    "class-assignment": 1.0
  },
  {
    "molecule": "CCCCCCCc1cc(O)c2c3c(c(=O)oc2c1)CCC(C)C3 (stereo unspecified)",
    "class-assignment": 1.0
  },
  {
    "molecule": "c1ccc(CSc2scnc2[P+](c2ccccc2)(c2ccccc2)c2ccccc2)cc1",
    "class-assignment": 1.0
  },
  {
    "molecule": "Cc1cc(C)nc(N=C(N)Nc2cccc(O)c2)n1",
    "class-assignment": 1.0
  },
  {
    "molecule": "CCCCNC(=O)C(CC)Sc1nnc(-c2ccc(C)cc2)c(-c2ccc(C)cc2)n1 (stereo unspecified)",
    "class-assignment": 1.0
  },
  {
    "molecule": "Cc1cccc2c1[nH]c1nc(SCC(C)C)nnc12",
    "class-assignment": 1.0
  },
  {
    "molecule": "c1ccc(CNc2nc(Nc3ccccc3)nc3ccccc23)cc1",
    "class-assignment": 1.0
  }
]

We next turn to a different molecule, shown below.
Input: Status in this test for C=CCc1c(C)[nH]c2ccc(Br)cc2c1=O ?
Output: 1.0

---

# Tested on: P. yoelii liver stage in HepG2-A16-CD81EGFP, imaging
# measurement-protocol: exo-erythrocytic parasite development inhibition – imaging, Malaria Box, P. yoelii, HepG2-A16-CD81EGFP, dose response (AID 602156);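 further: infected cells exposed to compound for 48 hours before fixation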
Calls of active or inactive are those of the source. How the calls were made is not given here.
Your response should consist of one outcome taken from active, inactive

Please review the following examples before continuing.
[
  {
    "compound": "N#Cc1ccc(NC(=O)NC2CC3CCCC(C2)N3CCc2ccccc2)cc1 (configuration not stated)",
    "class-assignment": "active"
  },
  {
    "compound": "CN(C)c1cc[n+](CC(=O)Nc2ccc(Cl)cc2)cc1",
    "class-assignment": "active"
  },
  {
    "compound": "Cc1ccc(-n2c(-c3ccccc3)cc(C=NNC(=O)c3cccc(O)c3)c2-c2ccccc2)cc1",
    "class-assignment": "active"
  },
  {
    "compound": "Cc1ccc(-n2c(-c3ccccc3)cc(C=NNC(=O)c3cccc(-n4c(C)ccc4C)c3)c2-c2ccccc2)cc1",
    "class-assignment": "active"
  },
  {
    "compound": "COc1ccc(C2CC(=O)C3=C(C2)NC(C)=C(C(=O)OC(C)C)C3c2ccccc2OC)cc1OC (configuration not stated)",
    "class-assignment": "inactive"
  }
]

Input: Status in this test for S=C(NN=Cc1ccccn1)NC1CC2CC1C1C=CCC21 (configuration not stated) ?
Output: active

Input: Status in this test for N#CCSc1nc2ccccc2c2nc(CCc3c[nH]c4ccccc34)nn12 ?
Output: inactive

Input: Status in this test for CCCN(CCC)[P+](CCC)(c1ccc([P+](CCC)(N(CCC)CCC)N(CCC)CCC)cc1)N(CCC)CCC ?
Output: active

Input: Status in this test for Cc1oc2c(c1C(=O)NC1CCS(=O)(=O)C1)C(=O)c1ccccc1C2=O (configuration not stated) ?
Output: active

Input: Status in this test for O=C(Nc1ccc2oc(-c3cccc4ccccc34)nc2c1)c1ccc([N+](=O)[O-])o1 ?
Output: active
